Tested on: chronic unpredictable stress (CUS) model in rats
Assay: Autonomous movement in CUS model in rats
Type: in vivo
Conditions: 15 mg/kg intragastric daily, 7 days
property-label: Autonomous movement Distance

1) COc1cc(Br)c2cc1Oc1ccc(cc1)CC1c3cc(c(OC)cc3CCN1C)Oc1c(OC)c(OC)c(Br)c3c1C(C2)N(C)CC3 (centres unmarked)
10116.74 ± 746.48^##,$$ mm
2) COc1ccc2cc1Oc1ccc(cc1)CC1c3cc(c(OC)cc3CCN1C)Oc1c(OC(C)C)c(OC)cc3c1C(C2)N(C)CC3 (centres unmarked)
12194.23 ± 887.65^##,$$ mm
3) CCCCOc1c(OC)cc2c3c1Oc1cc4c(cc1OC)CCN(C)C4Cc1ccc(cc1)Oc1cc(ccc1OC)CC3N(C)CC2 (centres unmarked)
9586.43 ± 756.75^##,$$ mm
4) COc1ccc2cc1Oc1ccc(cc1)C[C@H]1c3cc(c(OC)cc3CCN1C)Oc1c(OC)c(OC)cc3c1[C@H](C2)N(C)CC3 [tetrandrine, reference compound]
1124.37 ± 504.85 mm
5) CCOc1c(OC)c(Br)c2c3c1Oc1cc4c(cc1OC)CCN(C)C4Cc1ccc(cc1)Oc1cc(c(Br)cc1OC)CC3N(C)CC2 (centres unmarked)
14003.63 ± 737.47^##,$$ mm
